Numbers sourced from the supplement of paper PMC3342239.

What fraction of cells in G1 phase was measured for each of the following?
system: Saccharomyces cerevisiae; experiment: fraction of cells in G1 phase (DNA content, flow cytometry); higher = more cells with unreplicated DNA (G1 delay); settings: temperature: 30 C; YPD; JTY2953 pdr5 snq2 (sensitized); drug added to: cultures diluted from stationary phase; 6-7 h
Where a name gives a salt, the structure may show the parent alone.
// response body must contain only the number

Requested read-out: fraction of cells in G1 phase. Entry: CO[C@]12C[C@@H](COC(=O)c3cncc(Br)c3)CN(C)[C@@H]1Cc1cn(C)c3cccc2c13 [Nicergoline] (41.2884 µM)
0.481

Next: CC(C)(C)NCC(O)c1ccccc1Cl (centres undefined) [Tulobuterol] (87.8208 µM)
0.493

Next: C=CCN1CC[C@]23c4c5ccc(O)c4O[C@H]2/C(=N/N=C2\CC[C@@]4(O)[C@H]6Cc7ccc(O)c8c7[C@@]4(CCN6CC=C)[C@H]2O8)CC[C@@]3(O)[C@H]1C5 [Naloxonazine 2HCl] (30.7323 µM)
0.456

Next: O=C([O-])Cc1ccccc1.[Na+] [Sodium phenylacetate] (126.475 µM)
0.487

Next: CC(C)(C)NCC(O)c1cc(Cl)c(N)c(Cl)c1 (centres undefined) [Clenbuterol] (72.1511 µM)
0.498

Next: O=C(CCCN1CCC2(CC1)C(=O)NCN2c1ccccc1)c1ccc(F)cc1 [Spiperone] (50.5713 µM)
0.484

Next: O=P1(N(CCCl)CCCl)NCCCO1 (centres undefined) [Cyclophosphamide monohydrate] (76.6021 µM)
0.501

Next: CC[C@@H](CO)NC(=O)[C@@H]1C=C2c3cccc4c3c(cn4C)C[C@H]2N(C)C1 [Methysergide] (56.5822 µM)
0.48

Next: N[C@@H]1C[C@H]1c1ccccc1.N[C@H]1C[C@@H]1c1ccccc1 [Tranylcypromine] (150.156 µM)
0.531

Next: Oc1ccc2c3c1O[C@H]1c4oc5ccccc5c4C[C@@]4(O)[C@@H](C2)N(CC2CC2)CC[C@]314 [Naltriben methanesulfonate hydrate] (39.093 µM)
0.45

Next: C#CCN(C)C(C)Cc1ccccc1 (centres undefined) [Deprenyl] (89.4055 µM)
0.518

Next: COc1ccc2c(c1)[C@]13CCCC[C@@H]1[C@H](C2)N(C)CC3 [Dextromethorphan HBr] (73.6903 µM)
0.503

Next: CC(CCc1ccccc1)NC(C)C(O)c1ccc(O)cc1 (centres undefined) [Buphenine] (59.5415 µM)
0.512

Next: CNC(=O)Oc1ccc2c(c1)[C@]1(C)CCN(C)[C@@H]1N2C [Physostigmine sulfate] (72.6339 µM)
0.472

Next: Oc1ccc2c3c1O[C@H]1c4[nH]c5ccccc5c4C[C@@]4(O)[C@@H](C2)N(CC2CC2)CC[C@]314 [Naltrindole HCl] (48.2499 µM)
0.504

Next: O=C1C[C@@H]2OCC=C3CN4CC[C@]56c7ccccc7N1[C@H]5[C@H]2[C@H]3C[C@H]46 [Strychnine HCl] (59.8047 µM)
0.497

Next: Oc1ccc2c3c1O[C@H]1[C@@H](O)CC[C@@]4(O)[C@@H](C2)N(CC2CCC2)CC[C@]314 [Nalbuphine HCl] (55.9513 µM)
0.469

Next: COc1ccc(C(CN(C)C)C2(O)CCCCC2)cc1 (centres undefined) [Venlafaxine HCl] (72.0954 µM)
0.453

Next: C=C1C[C@@H]2[C@H](CC[C@]3(C)C(=O)CC[C@@H]23)[C@@]2(C)C=CC(=O)C=C12 [Exemestane] (67.4764 µM)
0.567

Next: COc1ccc2c(c1)[nH]c1c(C)nccc12 [Harmine] (94.227 µM)
0.474

Next: CC(NC(C)(C)C)C(=O)c1cccc(Cl)c1 (centres undefined) [Amfebutamone] (83.4211 µM)
0.502

Next: COc1ccc(C(=O)c2c(C)n(CCN3CCOCC3)c3ccccc23)cc1 [Pravadoline] (52.8436 µM)
0.594

Next: O=C1CC[C@@]2(O)[C@H]3Cc4ccc(O)c5c4[C@@]2(CCN3CC2CC2)[C@H]1O5 [Naltrexone HCl] (58.5805 µM)
0.509

Next: C[C@]12CC[C@H](O)CC1=CC[C@@H]1[C@@H]2CC[C@]2(C)C(=O)CC[C@@H]12 [Dehydroepiandrosterone] (69.34 µM)
0.633

Next: CN(C)C(=O)Oc1cc(OC(=O)N(C)C)cc(C(O)CNC(C)(C)C)c1 (centres undefined) [Bambuterol] (54.4293 µM)
0.518

Next: O=c1[nH]c2ccccc2n1C1CCN(CCCC(c2ccc(F)cc2)c2ccc(F)cc2)CC1 [Pimozide] (43.3313 µM)
0.85

Next: CCC1(c2ccc(N)cc2)CCC(=O)NC1=O (racemic) [Dl-aminoglutethimide] (86.1012 µM)
0.476

Next: N[C@@H](Cc1ccc(N(CCCl)CCCl)cc1)C(=O)O [Melphalan] (65.5294 µM)
0.45

Next: C#C[C@]1(O)CC[C@H]2[C@@H]3CCC4=CC(=O)CCC4=C3C=C[C@@]21CC [Gestrinone] (64.8457 µM)
0.609
